# Tested on: OVCAR-5 ovarian
# Assay Notes: NCI tumour cell line growth inhibition, 48 h
Test Readout: TGI

TGI for CCCCCCCCCCC/C=C(/C(=O)CCCO[Si](C)(C)C(C)(C)C)C(=O)OC ?
> 100 µM

TGI for CC(C)[C@@]12C[C@@H](OC(=O)C3CO3)[C@@](C)(O1)[C@@H]1CC[C@@H](C)[C@H]1[C@@H]2OC(=O)/C=C/c1ccccc1 (some centres undefined) ?
47.9 µM

TGI for CC(=O)OC(C(=O)O)C(OC(C)=O)C(OC(C)=O)C(OC(C)=O)C(=O)O (centres undefined) ?
> 100 µM

TGI for FC(F)(F)c1ccc2c(-c3cc[nH]c3)ccnc2c1 ?
87.4 µM

TGI for CC(=O)NC1=NC(=O)/C(=C/c2ccccc2Cl)N1C ?
> 100 µM

TGI for COc1ccc(C2(CC(C)C)CCNC2)cc1OC (centres undefined) ?
> 100 µM

TGI for O=C(CCN1CCCCC1)Nc1ccc2c(c1)C(=O)c1ccc(NC(=O)CCN3CCCCC3)cc1C2=O ?
31.4 µM

TGI for CCOc1ccccc1/C=N\N=C(N/N=C/c1ccccc1OCC)N/N=C/c1ccccc1OCC ?
> 100 µM

TGI for c1ccc(CSC(SCc2ccccc2)c2cccc3ccccc23)cc1 ?
> 10 µM

TGI for CCN(CC)CCCNc1ccc([N+](=O)[O-])c2nc3ccccc3c(N)c12 ?
3.43 µM

TGI for CCCCCN(CCCCC)CCC[C@@H](C)[C@H]1CC[C@H]2[C@@H]3[C@H](OCCCN)C[C@@H]4C[C@H](OCCCN)CC[C@]4(C)[C@H]3C[C@H](OCCCN)[C@]12C ?
23.4 µM

TGI for CC(=O)NC(CCCNC(=O)N(C)N=O)C(=O)NCc1ccccc1 (centres undefined) ?
> 100 µM

TGI for CC(C)CNC1=NCC(C)S1 (centres undefined) ?
> 100 µM

TGI for COc1cc([C@@H]2c3cc4c(cc3[C@@H](NCc3ccccc3F)C3COC(=O)[C@@H]32)OCO4)cc(OC)c1O (some centres undefined) ?
78.4 µM

TGI for CC(=O)C1C(=O)C(=O)N(c2ccc([N+](=O)[O-])cc2[N+](=O)[O-])C1=O (centres undefined) ?
> 100 µM

TGI for COc1cc2c(cc1OC)[C@@H]1C(=O)c3ccc4c(c3O[C@@H]1CO2)C[C@H](C(C)C)O4 ?
> 100 µM

TGI for C[N+]1(C(CO)Cc2c[nH]c3ccccc23)Cc2ccccc2C1 (centres undefined) ?
> 100 µM

TGI for C[C@]12Cc3conc3C(O)=C1CC[C@@H]1C2CC[C@@]2(C)C1CC[C@@H]2O (some centres undefined) ?
> 100 µM

TGI for O=c1[nH]c(-c2ccc(Cl)c(Cl)c2)cn1-c1ccc(Cl)cc1 ?
> 100 µM

---

# Test system: NCI-H226 lung
# Assay Notes: NCI tumour cell line growth inhibition, 48 h
Test Readout: TGI

TGI for COc1ccc2cc3c4cc(OC)c(OC)cc4ccn3c2c1 ?
> 100 µM

TGI for COc1ccc(OC)c(N2CC(O)=C(c3nc4ccccc4s3)C2=N)c1 ?
> 100 µM

TGI for COC(=O)CN(CC(=O)NCCNC(=O)OC(C)(C)C)C1CCCCC1N(CC(=O)OC)CC(=O)OC (stereo not given) ?
> 100 µM

TGI for Nc1nc(-c2cccnc2)cc(-c2cc(-c3cccnc3)nc(N)n2)n1 ?
> 100 µM

TGI for COc1ccccc1NC1Oc2cc3c(cc2C(c2cc(OC)c(OC)c(OC)c2)C1C)OCO3 (stereo not given) ?
9.92 µM
